SUBJECT OF TEST: UniProt:P14902
PROTOCOL SUMMARY: Human IDO-1 inhibitory activity in HEK cells (human IDO1/HEK293 cellular assay)
Assay type: cell-based
Set-up: expressed in transfected cells
CONDITIONS: HEK human IDO-1 cellular assay; 500 nM reference standard = 100% inhibition, DMSO = 0%
List of IC50 values.

[
  {
    "COMPOUND": "CC[C@H](CC(=O)O)c1ccc(N2CCOC[C@@H]2C(C)C)c(Nc2ccc(F)cc2)c1 (single isomer, unassigned)",
    "IC50": "< 0.05 µM"
  },
  {
    "COMPOUND": "CCC(CC(=O)O)c1ccc(N(CC)C2CCOCC2)c(NC(=O)Nc2cnc(C)nc2)c1 (single isomer, unassigned) [Example 488 Enantiomer 2]",
    "IC50": "> 0.05 µM"
  }
]

Turning to the following compound.
Give recorded IC50. CCC(CC(=O)O)c1ccc(N(CCC(C)C)C2CCCCC2)c(NC(=O)Cc2ccc(C)cc2)c1 (single isomer, unassigned) [Example 1099 E1]
< 0.05 µM

* * *

SUBJECT OF TEST: human IDO1 (Homo sapiens, UniProt P14902)
Sequence (P14902 whole entry): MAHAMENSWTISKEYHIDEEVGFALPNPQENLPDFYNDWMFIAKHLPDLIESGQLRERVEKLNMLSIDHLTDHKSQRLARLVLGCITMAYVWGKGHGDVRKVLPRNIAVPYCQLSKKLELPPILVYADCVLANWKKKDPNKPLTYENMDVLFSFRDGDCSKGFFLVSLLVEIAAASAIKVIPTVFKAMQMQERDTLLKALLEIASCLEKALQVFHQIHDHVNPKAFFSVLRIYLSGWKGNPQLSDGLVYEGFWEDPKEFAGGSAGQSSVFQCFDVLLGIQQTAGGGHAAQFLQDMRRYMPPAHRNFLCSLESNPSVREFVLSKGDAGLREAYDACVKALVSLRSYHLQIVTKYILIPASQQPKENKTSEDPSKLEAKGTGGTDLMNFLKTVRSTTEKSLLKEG
PROTOCOL SUMMARY: Human IDO-1 inhibitory activity in Hela cells (interferon-gamma stimulated)
Format: cell-based
Parameters: endogenous in cells; host or cells: HeLa cells stimulated with interferon-gamma
CONDITIONS: 18 hours, unstimulated wells = 100% inhibition
QUANTITY NAME: IC50

Illustrative cases are given below, each with its answer.
[
  {
    "COMPOUND": "CCN(c1ccc([C@H](COC)CC(=O)O)cc1Nc1cccc(OC(F)(F)C(F)F)c1)C1CCOCC1 (single isomer, unassigned)",
    "QUANTITY NAME": "IC50",
    "RESULT": "> 50 nM"
  },
  {
    "COMPOUND": "CCN(c1ccc(C(CC(=O)O)C2CC2)cc1NC(=O)Nc1ccc(C#N)cc1)C1CCS(=O)(=O)CC1 (single isomer, unassigned) [Example 348 E1]",
    "QUANTITY NAME": "IC50",
    "RESULT": "> 50 nM"
  }
]

Turning to the following compound.
Give recorded IC50. CCN(c1ccc([C@H](COC)CC(=O)O)cc1Nc1ccc(C#N)cc1C)C1CCOCC1 (single isomer, unassigned)
< 50 nM

* * *

SUBJECT OF TEST: human IDO1 (Homo sapiens, UniProt P14902)
PROTOCOL SUMMARY: Human IDO-1 inhibitory activity in HEK cells (human IDO1/HEK293 cellular assay)
Type: cell-based
Design: expressed in transfected cells
CONDITIONS: HEK human IDO-1 cellular assay; 500 nM reference standard = 100% inhibition, DMSO = 0%
List of IC50 values.

Illustrative cases are given below, each with its answer.
[
  {
    "COMPOUND": "CCC(CC(=O)O)c1ccc(N2CCCC2C(C)(C)F)c(NC(=O)Nc2ccc(OC)cc2F)c1 (stereo not drawn) [Example 787]",
    "IC50": "> 50 nM"
  },
  {
    "COMPOUND": "CCCN(CC1CC1)c1ccc(C(CC)CC(=O)O)cc1Nc1ccc(Cl)cc1 (single isomer, unassigned) [Example 656 E2]",
    "IC50": "< 5 nM"
  },
  {
    "COMPOUND": "CCCOc1ncc(Nc2cc(C(CC)CC(=O)O)ccc2N(CC(C)C)C2CCCCC2)cn1 (single isomer, unassigned) [Example 654]",
    "IC50": "< 5 nM"
  },
  {
    "COMPOUND": "CCC(CC(=O)O)c1cc(F)c(N(CC(C)C)CC(C)C)c(NC(=O)Cc2ccc(Cl)cc2F)c1 (single isomer, unassigned) [Example 1092 E1]",
    "IC50": "< 5 nM"
  },
  {
    "COMPOUND": "CCC(CC(=O)O)c1cc(F)c(N(CC(C)C)C2CCCCC2)c(NC(=O)Nc2ccc(Cl)cc2F)c1 (racemic) [Example 1090]",
    "IC50": "< 5 nM"
  }
]

Turning to the following compound.
Give recorded IC50. CCN(c1ccc([C@H](COC)CC(=O)O)cc1Nc1cnc(OC)nc1)C1CCOCC1 (single isomer, unassigned) [Example 387]
< 50 nM

* * *

SUBJECT OF TEST: human IDO1 (Homo sapiens, UniProt P14902)
PROTOCOL SUMMARY: Human IDO-1 inhibitory activity in HEK cells (human IDO1/HEK293 cellular assay)
Type: cell-based
Set-up: expressed in transfected cells
CONDITIONS: HEK human IDO-1 cellular assay; 500 nM reference standard = 100% inhibition, DMSO = 0%
List of IC50 values.

[
  {
    "COMPOUND": "CCN(c1ccc(C(CC(=O)O)c2ccccc2)cc1NC(=O)Nc1cc(C)on1)C1CCOCC1 (single isomer, unassigned)",
    "IC50": "> 50 nM"
  },
  {
    "COMPOUND": "COCC(CC(=O)O)c1ccc(N(CC(C)C)C2CCCCC2)c(NC(=O)Cc2cc(C)on2)c1 (single isomer, unassigned)",
    "IC50": "> 50 nM"
  },
  {
    "COMPOUND": "CCN(c1ccc(C(C)CC(=O)O)cc1Nc1ccc(Cl)cc1)C1CCOCC1 (single isomer, unassigned) [Example 612 E2]",
    "IC50": "< 5 nM"
  },
  {
    "COMPOUND": "CCC(CC(=O)O)c1ccc(N2CCC[C@H]2C(C)(C)O)c(NC(=O)Nc2cc(C)on2)c1 (single isomer, unassigned)",
    "IC50": "> 50 nM"
  },
  {
    "COMPOUND": "CCC(CC(=O)O)c1ccc(N(CC)C2CCOCC2)c(NC(=O)Nc2ccc(C)cc2)c1 (single isomer, unassigned) [Example 487 Enantiomer 2]",
    "IC50": "< 5 nM"
  }
]

Give recorded IC50. CCC(CC(=O)O)c1ccc(N(CCC(C)C)C2CCCCC2)c(NC(=O)Cc2ccc(C)cc2)c1 (single isomer, unassigned) [Example 1099 E2]
< 50 nM

* * *

List of IC50 values.
SUBJECT OF TEST: human IDO1 (Homo sapiens)
PROTOCOL SUMMARY: Human IDO-1 inhibitory activity in Hela cells (interferon-gamma stimulated)
Type: cell-based
Set-up: endogenous in cells; host or cells: HeLa cells stimulated with interferon-gamma
CONDITIONS: 18 hours, unstimulated wells = 100% inhibition

[
  {
    "MOLECULE": "CCN(c1ccc([C@H](COC)CC(=O)O)cc1Nc1ccc(C#N)c(OCC(F)(F)F)c1)C1CCOCC1 (single isomer, unassigned)",
    "IC50": "< 0.05 µM"
  },
  {
    "MOLECULE": "CCN(c1ccc([C@H](COC)CC(=O)O)cc1Nc1ccc(C#N)c(C(F)(F)F)c1)C1CCOCC1 (single isomer, unassigned)",
    "IC50": "> 0.05 µM"
  },
  {
    "MOLECULE": "CCN(c1ccc([C@H](COC)CC(=O)O)cc1Nc1ccc2c(c1)OC(F)(F)O2)C1CCOCC1 (single isomer, unassigned)",
    "IC50": "< 0.005 µM"
  },
  {
    "MOLECULE": "CCOc1ncc(Nc2cc(C(COC)CC(=O)O)ccc2N(CC)C2CCS(=O)(=O)CC2)cn1 (single isomer, unassigned)",
    "IC50": "> 0.05 µM"
  },
  {
    "MOLECULE": "CCC(CC(=O)O)c1ccc(N2CCOC(C)(C)C2)c(Nc2ccc(Cl)cc2)c1 (single isomer, unassigned) [Example 1319 E2]",
    "IC50": "< 0.05 µM"
  },
  {
    "MOLECULE": "CCN(c1ccc([C@H](COC)CC(=O)O)cc1Nc1ccc(C#N)cc1F)C1CCOCC1 (single isomer, unassigned)",
    "IC50": "< 0.005 µM"
  },
  {
    "MOLECULE": "CCN(c1ccc([C@H](COC)CC(=O)O)cc1Nc1ccc(C#N)c(OC)c1)C1CCOCC1 (single isomer, unassigned)",
    "IC50": "< 0.05 µM"
  },
  {
    "MOLECULE": "CCN(c1ccc([C@H](COC)CC(=O)O)cc1Nc1ccc(Cl)cc1F)C1CCOCC1 (single isomer, unassigned)",
    "IC50": "< 0.005 µM"
  },
  {
    "MOLECULE": "CCN(c1ccc(C(COC)CC(=O)O)cc1Nc1ccc(C#N)cc1)C1CCCOC1 (single isomer, unassigned) [265 E2]",
    "IC50": "< 0.005 µM"
  },
  {
    "MOLECULE": "CCN(c1ccc([C@H](COC)CC(=O)O)cc1Nc1ccc(F)cn1)C1CCOCC1 (single isomer, unassigned)",
    "IC50": "< 0.05 µM"
  }
]

Turning to the following molecule.
Give recorded IC50. CCN(c1ccc(C(COC)CC(=O)O)cc1Nc1cnc(OC)nc1)C1CCS(=O)(=O)CC1 (single isomer, unassigned) [Example 168 Enantiomer 1]
> 0.05 µM

These data points were gathered from patent US10399933B2.
